# testProtocol: chemical genetic growth profiling, strain panel (AID 1159580);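 also: tested at 20 µM; growth read once vehicle control cultures reached saturation at 30 °C; 1 = growth at the plate median or of vehicle wells; lower values mean less growth of the strain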
# assaySetup: S. cerevisiae deletion strains, growth OD, locus YHR129C, strain ARP1, stronger effect = lower value
Among all 5,500 compounds or so, about 2,000 (36%) were called active. Roughly 18% stayed inconclusive and do not appear here. This is one part of the list.
In this section, each of the compounds is paired with its reported normalized growth.

>  <itemSmiles>
NC(=O)NC(=O)Cc1ccccc1

>  <normalized growth>
1

$$$$
>  <itemSmiles>
Oc1cccc(O)c1

>  <normalized growth>
1.02

$$$$
>  <itemSmiles>
CC(=O)c1ccc(O)c(CC=C(C)C)c1

>  <normalized growth>
0.967

$$$$
>  <itemSmiles>
NNCc1cccc(O)c1

>  <normalized growth>
0.993

$$$$
>  <itemSmiles>
NCC(=O)c1ccccc1

>  <normalized growth>
1.01

$$$$
>  <itemSmiles>
COc1cc(C(C)=O)cc(OC)c1O

>  <normalized growth>
1.01

$$$$
